# tested_target: T1, human PVRIG-his (AcroBiosystems, Cat NO. PVG-H52H4) (human, UniProt Q6DKI7 41-171, limits assumed)
# T1 construct: also called human PVRIG protein
# T1 sequence (looked up): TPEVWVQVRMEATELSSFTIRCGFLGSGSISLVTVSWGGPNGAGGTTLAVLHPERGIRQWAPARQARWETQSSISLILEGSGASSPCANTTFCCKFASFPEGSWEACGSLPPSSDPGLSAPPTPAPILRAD
# measurement_protocol: ELISA, antigen coated
We begin with a simple list: items and their reported EC50.
Numeric answer only, unit nM assumed.

Field: example entries. Status: answers known.
PVRIG-A118-H2 (Fc fusion, humanized variant of PVRIG-A118; also called A118.VH2; not shown: constant part not restated for the humanized forms; parents are VHH-hinge-CH2-CH3 of human IgG1; detected by anti-human) EVQLVESGGGLVQPGGSLRLSCAASETYFDLYVMGWYRQAPGKDRELVATITYTGSIKYVDSVKGRFTISRDNAKNSLYLQMNSLRAEDTAVYYCNADPSGLGRKVYWGQGTMVTVSS ... 0.0491
PVRIG-A105-H3 (Fc fusion, humanized variant of PVRIG-A105; also called A105.VH3; not shown: constant part not restated for the humanized forms; parents are VHH-hinge-CH2-CH3 of human IgG1; detected by anti-human) EVQLVESGGGLVQPGGSLRLSCAASGRTFDRHTMTWFRQAPGKEREFVATASRIPGDTYYVDSVKGRFTISRDNAKNSVYLQMNSLRAEDTAVYYCAATSAYCSEVDCYEKGSWYDNWGQGTMVTVSS ... 0.0585
PVRIG-A105-H2 (Fc fusion, humanized variant of PVRIG-A105; also called A105 VH2; not shown: constant part not restated for the humanized forms; parents are VHH-hinge-CH2-CH3 of human IgG1; detected by anti-human) EVQLVESGGGLVQPGGSLRLSCAASGRTFDRHTMTWFRQAPGKEREFVATASRIPGDTYYVDSVKGRFTISRDNAKNSLYLQMNSLRAEDTAVYYCAATSAYCSEVDCYEKGSWYDNWGQGTMVTVSS ... 0.0515

Input: Param item = PVRIG-A50-H1a (Fc fusion, humanized variant of PVRIG-A50; also called A50.VH1a; not shown: constant part not restated for the humanized forms; parents are VHH-hinge-CH2-CH3 of human IgG1; detected by anti-human) EVQLVESGGGLVQPGGSLRLSCAASGFTFSYYDMSWVRQAPGKGLEWVSTINSDGGRTSYVDSVKGRFTISRDNSKNTLYLQMNSLRAEDTAVYYCVEGDPHNFGLENLSLRDFGSWGQGTMVTVSS ; retrieve measured EC50.
Output: 0.099

Input: Repeat for the following binder: PVRIG-A50-H1c (Fc fusion, humanized variant of PVRIG-A50; also called A50.VH1c; not shown: constant part not restated for the humanized forms; parents are VHH-hinge-CH2-CH3 of human IgG1; detected by anti-human) EVQLVESGGGLVQPGGSLRLSCAASGFTFSYYDMSWVRQAPGKGLEWVSTINSDGGRTSYVDSVKGRFTISRDNSKNTLYLQMNSLRAEDTAVYYCVEGDPHNFGLENLALRDFGSWGQGTMVTVSS
Output: 0.105

Input: Repeat for the following binder: PVRIG-A118-H3 (Fc fusion, humanized variant of PVRIG-A118; also called A118.VH3; not shown: constant part not restated for the humanized forms; parents are VHH-hinge-CH2-CH3 of human IgG1; detected by anti-human) EVQLVESGGGLVQPGGSLRLSCAASETYFDLYVMGWYRQAPGKDRELVATITYTGSIKYVDSVKGRFTISRGDAKNSLYLQMNSLRAEDTAVYYCNADPSGLGRKVYWGQGTMVTVSS
Output: 0.05
